Listed here: items and their measured I30 μM/Icontrol (mean ± SEM, %) GluN2D.
- target.or.test.system: recombinant rat GluN1/GluN2D (Rattus norvegicus)
- Construct: expressed in transfected cells; host or cells: Xenopus laevis oocytes (Ecocyte) injected with in vitro transcribed cRNA
- Sequence (Q62645 28-1323, other chains not shown): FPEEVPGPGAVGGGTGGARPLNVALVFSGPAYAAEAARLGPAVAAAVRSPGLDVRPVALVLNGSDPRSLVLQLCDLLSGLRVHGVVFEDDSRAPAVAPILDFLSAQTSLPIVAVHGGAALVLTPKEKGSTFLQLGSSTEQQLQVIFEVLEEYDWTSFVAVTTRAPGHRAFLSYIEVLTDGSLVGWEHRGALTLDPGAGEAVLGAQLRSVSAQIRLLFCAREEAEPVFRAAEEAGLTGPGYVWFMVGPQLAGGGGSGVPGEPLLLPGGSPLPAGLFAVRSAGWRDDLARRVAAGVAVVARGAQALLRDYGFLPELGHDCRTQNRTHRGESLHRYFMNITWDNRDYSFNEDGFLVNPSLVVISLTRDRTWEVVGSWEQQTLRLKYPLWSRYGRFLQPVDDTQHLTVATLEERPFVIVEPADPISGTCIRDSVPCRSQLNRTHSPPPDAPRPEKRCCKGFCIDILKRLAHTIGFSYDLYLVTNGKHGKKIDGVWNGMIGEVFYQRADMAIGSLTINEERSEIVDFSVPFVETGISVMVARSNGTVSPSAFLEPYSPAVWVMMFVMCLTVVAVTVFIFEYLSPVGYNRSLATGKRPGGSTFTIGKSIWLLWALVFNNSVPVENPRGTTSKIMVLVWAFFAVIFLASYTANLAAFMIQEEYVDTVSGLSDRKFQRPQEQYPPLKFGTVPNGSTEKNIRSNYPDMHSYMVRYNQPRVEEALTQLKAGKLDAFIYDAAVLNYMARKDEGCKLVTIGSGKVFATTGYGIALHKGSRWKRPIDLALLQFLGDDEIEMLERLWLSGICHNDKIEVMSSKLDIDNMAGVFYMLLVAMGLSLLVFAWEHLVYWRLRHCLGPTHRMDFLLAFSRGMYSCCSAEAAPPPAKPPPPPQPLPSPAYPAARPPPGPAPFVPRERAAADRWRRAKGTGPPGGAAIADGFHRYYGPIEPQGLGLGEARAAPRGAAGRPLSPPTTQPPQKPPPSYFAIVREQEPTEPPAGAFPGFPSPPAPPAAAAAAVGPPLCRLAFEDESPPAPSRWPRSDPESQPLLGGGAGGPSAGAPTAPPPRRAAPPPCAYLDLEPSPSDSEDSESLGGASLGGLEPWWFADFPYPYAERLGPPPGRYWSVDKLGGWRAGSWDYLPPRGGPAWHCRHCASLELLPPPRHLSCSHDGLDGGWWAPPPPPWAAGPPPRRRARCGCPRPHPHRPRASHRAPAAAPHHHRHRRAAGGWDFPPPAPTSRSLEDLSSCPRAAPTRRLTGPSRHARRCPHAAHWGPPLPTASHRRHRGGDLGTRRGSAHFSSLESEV
- method.notes: Two-electrode voltage-clamp (TEVC) recordings in Xenopus laevis oocytes, GluN1/GluN2D
- Type: cell-based
- settings: 30 μM compound; Tables 5-7
Numbers only; they are read as %.

Worked examples follow.
CCOc1ccc(OCC2c3ccc(OC(C)C)cc3CCN2C(=O)c2ccc(Cl)c(Cl)c2)cc1 (stereo not shown)	101
CCOc1ccc(OCC2c3ccc(OC(C)C)cc3CCN2C(=S)c2cccc(C(F)(F)F)c2)cc1 (stereo not shown)	126
CCOc1ccc(OC[C@@H]2c3ccc(OC(C)C)cc3CCN2C(=O)c2cccc(C(F)(F)F)c2)cc1 [(S)-(−)-1180-92]	116
CCOc1ccc(OC[C@H]2c3ccc(OC(C)C)cc3CCN2C(=S)c2cccc(F)c2)cc1 [(R)-(+)-1180-154]	74

Please provide the recorded I30 μM/Icontrol (mean ± SEM, %) GluN2D for CCOc1ccc(OC[C@@H]2c3ccc(OC(C)C)cc3CCN2C(=O)c2ccc(Cl)c(Cl)c2)cc1 [(S)-(−)-1180-103] , tested on recombinant rat GluN1/GluN2D (Rattus norvegicus). 102

For the record CCOc1ccc(OCC2c3ccc(OC(C)C)cc3CCN2C(=S)c2cccc(F)c2)cc1 (racemic) , what value of I30 μM/Icontrol (mean ± SEM, %) GluN2D is listed for recombinant rat GluN1/GluN2D (Rattus norvegicus)? 154

====

I30 μM/Icontrol (mean ± SEM, %) GluN2B: recorded values
- target.or.test.system: recombinant rat GluN1/GluN2B (Rattus norvegicus, UniProt Q00960)
- Construct: expressed in transfected cells; host or cells: Xenopus laevis oocytes (Ecocyte) injected with in vitro transcribed cRNA
- Sequence (Q00960 27-1482, other chains not shown): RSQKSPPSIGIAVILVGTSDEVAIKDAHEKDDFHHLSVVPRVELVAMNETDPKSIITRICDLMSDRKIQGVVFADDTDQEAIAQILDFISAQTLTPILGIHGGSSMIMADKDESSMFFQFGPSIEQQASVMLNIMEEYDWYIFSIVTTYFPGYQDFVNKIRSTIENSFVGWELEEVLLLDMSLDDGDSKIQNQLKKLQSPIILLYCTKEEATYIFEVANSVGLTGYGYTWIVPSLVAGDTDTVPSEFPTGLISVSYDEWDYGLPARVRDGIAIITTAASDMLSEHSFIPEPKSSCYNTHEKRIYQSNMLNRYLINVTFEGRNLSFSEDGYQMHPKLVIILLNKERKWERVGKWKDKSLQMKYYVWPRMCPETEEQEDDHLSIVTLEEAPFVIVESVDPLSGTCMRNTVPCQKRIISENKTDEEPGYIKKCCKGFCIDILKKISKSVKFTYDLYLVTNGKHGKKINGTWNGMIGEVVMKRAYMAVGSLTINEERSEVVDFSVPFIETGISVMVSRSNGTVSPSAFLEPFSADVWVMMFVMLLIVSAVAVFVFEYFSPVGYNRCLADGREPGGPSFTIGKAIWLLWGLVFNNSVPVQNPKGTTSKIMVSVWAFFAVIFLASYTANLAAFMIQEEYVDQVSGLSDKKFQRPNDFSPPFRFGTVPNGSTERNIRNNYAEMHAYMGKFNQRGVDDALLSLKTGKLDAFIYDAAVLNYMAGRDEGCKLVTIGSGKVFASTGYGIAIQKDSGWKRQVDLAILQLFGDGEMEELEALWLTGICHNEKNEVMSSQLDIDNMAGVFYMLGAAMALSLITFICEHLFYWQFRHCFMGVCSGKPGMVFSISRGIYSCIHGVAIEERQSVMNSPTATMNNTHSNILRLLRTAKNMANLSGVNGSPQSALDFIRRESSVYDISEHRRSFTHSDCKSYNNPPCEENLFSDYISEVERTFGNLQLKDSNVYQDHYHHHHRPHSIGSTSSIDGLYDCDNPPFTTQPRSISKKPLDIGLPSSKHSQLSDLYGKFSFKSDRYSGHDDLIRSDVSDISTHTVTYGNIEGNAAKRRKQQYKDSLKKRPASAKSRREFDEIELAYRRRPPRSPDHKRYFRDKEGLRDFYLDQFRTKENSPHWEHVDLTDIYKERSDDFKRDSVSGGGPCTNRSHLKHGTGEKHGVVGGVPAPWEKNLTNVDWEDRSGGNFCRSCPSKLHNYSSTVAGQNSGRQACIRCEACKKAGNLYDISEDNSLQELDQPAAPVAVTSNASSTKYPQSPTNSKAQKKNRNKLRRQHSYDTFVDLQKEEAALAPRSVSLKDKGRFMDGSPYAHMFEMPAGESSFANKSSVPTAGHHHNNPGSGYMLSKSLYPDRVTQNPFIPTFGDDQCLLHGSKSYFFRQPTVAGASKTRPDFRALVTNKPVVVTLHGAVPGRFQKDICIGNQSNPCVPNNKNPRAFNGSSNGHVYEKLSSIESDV
- method.notes: Two-electrode voltage-clamp (TEVC) recordings in Xenopus laevis oocytes, GluN1/GluN2B
- Assay type: cell-based
- settings: 30 μM compound; Tables 5-7
API: value field is a number in %; no unit string.

Below, 6 compounds whose answers are already recorded.
CCOc1ccc(OC[C@@H]2c3ccc(OC(C)C)cc3CCN2C(=O)c2ccc(Cl)c(Cl)c2)cc1 [(S)-(−)-1180-103]	153
CCOc1ccc(OC[C@@H]2c3ccc(OC(C)C)cc3CCN2C(=O)c2cccc(F)c2)cc1 [(S)-(−)-1180-87]	195
CCOc1ccc(OC[C@@H]2c3ccc(OC(C)C)cc3CCN2C(=S)c2cccc(F)c2)cc1 [(S)-(−)-1180-154]	206
CCOc1ccc(OCC2c3ccc(OC(C)C)cc3CCN2C(=O)c2cccc(F)c2)cc1 (centres unmarked) [1180-87]	151
CCOc1ccc(OCC2c3ccc(OC(C)C)cc3CCN2C(=S)c2cccc(F)c2)cc1 (racemic) [1180-154]	184
CCOc1ccc(OC[C@@H]2c3ccc(OC(C)C)cc3CCN2C(=S)c2cccc(C(F)(F)F)c2)cc1 [(S)-(−)-1180-168]	95

Could you share which I30 μM/Icontrol (mean ± SEM, %) GluN2B value was measured for CCOc1ccc(OCC2c3ccc(OC(C)C)cc3CCN2C(=S)c2cccc(C(F)(F)F)c2)cc1 (centres unmarked) [1180-168] ? 185

For the compound shown here, CCOc1ccc(OC[C@H]2c3ccc(OC(C)C)cc3CCN2C(=O)c2cccc(C(F)(F)F)c2)cc1 [(R)-(+)-1180-92] , give the reported I30 μM/Icontrol (mean ± SEM, %) GluN2B. 75

Can you share its I30 μM/Icontrol (mean ± SEM, %) GluN2B? I mean this compound: CCOc1ccc(OC[C@@H]2c3ccc(OC(C)C)cc3CCN2C(=O)c2cccc(C(F)(F)F)c2)cc1 [(S)-(−)-1180-92] 207

Any idea what I30 μM/Icontrol (mean ± SEM, %) GluN2B was measured for CCOc1ccc(OC[C@H]2c3ccc(OC(C)C)cc3CCN2C(=O)c2cccc(F)c2)cc1 [(R)-(+)-1180-87] ? 103

I30 μM/Icontrol (mean ± SEM, %) GluN2B lookup needed for CCOc1ccc(OC[C@H]2c3ccc(OC(C)C)cc3CCN2C(=S)c2cccc(C(F)(F)F)c2)cc1 [(R)-(+)-1180-168] , thanks. 156

Given CCOc1ccc(OCC2c3ccc(OC(C)C)cc3CCN2C(=O)c2ccc(Cl)c(Cl)c2)cc1 (centres unmarked) [1180-103] , state its recorded I30 μM/Icontrol (mean ± SEM, %) GluN2B. 120

Which value of I30 μM/Icontrol (mean ± SEM, %) GluN2B has been reported for CCOc1ccc(OC[C@H]2c3ccc(OC(C)C)cc3CCN2C(=S)c2cccc(F)c2)cc1 [(R)-(+)-1180-154] in the records? 95

Form field: reported I30 μM/Icontrol (mean ± SEM, %) GluN2B of CCOc1ccc(OC[C@H]2c3ccc(OC(C)C)cc3CCN2C(=O)c2ccc(Cl)c(Cl)c2)cc1 [(R)-(+)-1180-103] 83
